# Tested on: MCF7
# Test details: NCI tumour cell line growth inhibition, 48 h
Counter-ions that a name gives are not always drawn. The source made the active and inactive calls. Rule as the data show it: active = GI50 up to about 1.1 µM and inactive = higher.
Measure: GI50

[[record]]
compound = "CC1=C(C(=O)Nc2ccc(Cl)c(C(=O)OC(C)C)c2)SCCO1"
result = "55.3 µM (inactive)"

[[record]]
compound = "Cc1cc2c(C(C)C)c(O)c(O)c(/C=N/c3cc(C(F)(F)F)ccc3Cl)c2c(O)c1-c1c(C)cc2c(C(C)C)c(O)c(O)c(/C=N/c3cc(C(F)(F)F)ccc3Cl)c2c1O"
result = "27.7 µM (inactive)"

[[record]]
compound = "CCOC(=O)/C=C(/C(=O)OCC)n1ccc(=O)n(Cc2cn(COCCOC(C)=O)nn2)c1=O"
result = "15 µM (inactive)"


Lookup: Find the measured GI50 of CC(=O)Oc1cc2c(cc1OCC(F)(F)F)[C@H]1CC[C@]3(C)[C@@H](OC(C)=O)CC[C@H]3[C@@H]1CC2=O and report it.
Found: 18.9 µM (inactive)

Lookup: Write down GI50 measured for item CN(C)c1ccc(/C=N/NC(=S)Nc2ccccc2)cc1
Found: > 100 µM (inactive)

Lookup: Read the entry CCN(CC)c1ccc2cc(C(=O)Nc3ccc(C)cc3)c(=N)oc2c1 and write its reported GI50.
Found: > 100 µM (inactive)

Lookup: Output GI50 of CCOC(=O)c1c(SC(=O)c2ccc(Cl)cc2)n(-c2ccccc2)c(=S)n(-c2ccccc2)c1=O
Found: > 100 µM (inactive)

Lookup: For the compound NCCCNCCCCNCCCN [SPERMINE TETRAHYDROCHLORIDE] , give its reported GI50.
Found: 2.79 µM (inactive)

Lookup: Identify measured GI50 associated with Cc1ccccc1C(=N)c1ccccc1Cc1cccc2ccccc12
Found: 19.1 µM (inactive)

* * *

Listed compounds paired with reported GI50
# System: A549
# Test details: NCI tumour cell line growth inhibition, 48 h
Active and inactive are the calls of the source. Rule as the data show it: active = GI50 up to about 1.1 µM and inactive = higher.

Completed entries (count: 5):
[[record]]
compound = "CCOC(=O)NC(=O)c1cn(-c2ccc(CCOC(=O)CCCCCCCCC(=O)OCCc3ccc(-n4cc(C(=O)NC(=O)OCC)c(=O)[nH]c4=O)cc3)cc2)c(=O)[nH]c1=O"
subject_of_test = "A549"
measure = "GI50"
result = "> 100 µM (inactive)"

[[record]]
compound = "CC(C)CN1CC(C)C(=O)NC1=O (stereo unspecified)"
subject_of_test = "A549"
measure = "GI50"
result = "> 100 µM (inactive)"

[[record]]
compound = "O=c1cc2ccccc2nn1Cc1cccc(Cl)c1"
subject_of_test = "A549"
measure = "GI50"
result = "49.8 µM (inactive)"

[[record]]
compound = "O=c1[nH][nH]c(=O)n1/N=C/c1ccccc1"
subject_of_test = "A549"
measure = "GI50"
result = "> 100 µM (inactive)"

[[record]]
compound = "Nc1ccc(-c2nc3ccc(F)cc3s2)cc1I"
subject_of_test = "A549"
measure = "GI50"
result = "> 100 µM (inactive)"


Lookup: Name the recorded GI50 of the item O=c1nc2n(cc1/C=C\Br)C1CC(O)C(CO2)O1 (stereo unspecified) in your answer.
Found: > 100 µM (inactive)

Lookup: Fill in GI50 for record Cc1cc(C(=O)CCCCOc2ccc(C3=NCCO3)cc2)c(C)n1C
Found: > 10 µM (inactive)

* * *

# System: HOP-92
# Test details: NCI tumour cell line growth inhibition, 48 h
Active and inactive are the calls of the source. Cut-off read from the data, not from the text of the source: active = GI50 up to about 1.1 µM and inactive = higher.
Measure: GI50

[[record]]
compound = "Cn1c(=O)c2ccccc2c2ccccc21"
subject_of_test = "HOP-92"
result = "48.3 µM (inactive)"

[[record]]
compound = "CN1C(=O)C(c2c[nH]c3ccccc23)N(C)C(=O)C1c1c[nH]c2ccccc12 (configuration not stated)"
subject_of_test = "HOP-92"
result = "37.2 µM (inactive)"

[[record]]
compound = "CNC1NC(=O)c2ccccc2N1Cc1ccc(F)cc1 (configuration not stated)"
subject_of_test = "HOP-92"
result = "> 100 µM (inactive)"

[[record]]
compound = "CCOC(=O)c1nc2ccc(C(F)(F)F)cc2nc1Oc1cc(OC)cc(OC)c1"
subject_of_test = "HOP-92"
result = "40.1 µM (inactive)"

[[record]]
compound = "COc1ccc2c3c1C(=O)CCCC3CO2 (configuration not stated)"
subject_of_test = "HOP-92"
result = "> 100 µM (inactive)"

[[record]]
compound = "CC(=O)Nc1ccc(-c2nc3ccccc3s2)cc1C"
subject_of_test = "HOP-92"
result = "> 100 µM (inactive)"

[[record]]
compound = "O=C1NC(=O)C(Cc2ccccc2)(c2cccnc2)N1 (configuration not stated)"
subject_of_test = "HOP-92"
result = "> 100 µM (inactive)"

[[record]]
compound = "Cc1nc(Cc2n[nH]c(C)n2)n[nH]1"
subject_of_test = "HOP-92"
result = "> 100 µM (inactive)"

[[record]]
compound = "CC(=O)OC1(C#N)CC2OC1C1C2N1C(=O)OC(C)(C)C (configuration not stated)"
subject_of_test = "HOP-92"
result = "> 100 µM (inactive)"

[[record]]
compound = "CCOC(=O)/C=C(/C)Nc1nc2c(c(C(=O)OC)c1C#N)CCCC2"
subject_of_test = "HOP-92"
result = "> 100 µM (inactive)"


Lookup: Answer with the recorded GI50 for the compound listed here: N=C(N)NCCCC(NC(=O)OCCCCCCn1ccc(N)nc1=O)C(=O)O (configuration not stated)
Found: > 100 µM (inactive)

Lookup: Give the measured GI50 for Cc1ccccc1C(=N)c1ccccc1Cc1cccc2ccccc12
Found: 17.1 µM (inactive)

* * *

Readings of GI50 for the listed compounds
# System: SW-620
# Test details: NCI tumour cell line growth inhibition, 48 h
Activity calls are given as the source filed them. Cut-off read from the data, not from the text of the source: active = GI50 up to about 1.1 µM and inactive = higher.

[[record]]
compound = "O=C1c2ccccc2C(=O)C12CCc1ccccc12"
result = "> 100 µM (inactive)"


Lookup: Return the recorded GI50 value; entry: CC(C)(c1cn(Cc2ccccc2)c2ccccc12)c1cn(Cc2ccccc2)c2ccccc12
Found: > 100 µM (inactive)

Lookup: Please give measured GI50 of the following entry: CCN(CC)CCCC(C)Nc1c(Sc2cnc3cc(Cl)ccc3c2NC(C)CCCN(CC)CC)cnc2cc(Cl)ccc12 (stereo not given)
Found: 1.58 µM (inactive)

Lookup: Fill in reported GI50 for this entry: O=C(NN1C(=O)CS(=O)(=O)C1c1ccc(C(F)(F)F)cc1)c1ccncc1 (stereo not given)
Found: > 100 µM (inactive)

Lookup: Output measured GI50 for this item: Cn1c(=O)[nH]c2sc3c(c2c1=N)CCCC3
Found: > 75 µM (inactive)

* * *

# System: Malme-3M
# Test details: NCI tumour cell line growth inhibition, 48 h
Calls of active or inactive are those of the source. Rule as the data show it: active = GI50 up to about 1.1 µM and inactive = higher.
Measure: GI50

Some compounds with known GI50 results, for comparison:
[[record]]
compound = "O=C(c1c(O)cc(O)cc1O)C1Cc2ccccc21 (stereo not given)"
measure = "GI50"
result = "> 100 µM (inactive)"

[[record]]
compound = "C=C[C@H]1CN2CCc3c([nH]c4c([C@H]5CCCN5C)c(O)ccc34)[C@@H]2C[C@@H]1C[C@H]1c2[nH]c3ccccc3c2CCN1C [STRYCHNOPENTAMINE]"
measure = "GI50"
result = "1.76 µM (inactive)"


Lookup: # return GI50 for CSc1c(C(=O)Nc2ccccc2)c(N)n(N)c(=O)c1C#N , test system: Malme-3M
Found: > 100 µM (inactive)

Lookup: Answer briefly: GI50 recorded on Malme-3M for c1ccc2c(c1)Sc1ccccc1N2CC1CN2CCC1CC2 (stereo not given) [MEQUITAZINE]
Found: 1.94 µM (inactive)

Lookup: Using Malme-3M as the test system, report measured GI50 of O=c1[nH]c(=O)n(C2CC(O)C(CO)O2)cc1/C=C/Br (stereo not given) .
Found: > 100 µM (inactive)

Lookup: Output reported GI50 of the compound CC(C)(C)OC1=C(OC(C)(C)C)C(O)(c2ccccc2)C1=O (stereo not given) on Malme-3M.
Found: > 100 µM (inactive)

Lookup: Please look at O=C1C=CC(=CC=C2C=CN(CCCCCCCCCCC(=O)NCCCCCCCCCCCC(=O)O)C=C2)C=C1 and tell me its recorded GI50 on Malme-3M.
Found: > 100 µM (inactive)

Lookup: # assay system Malme-3M: give GI50 of O=C1Cc2ccccc2CCc2ccccc21
Found: 44.7 µM (inactive)

* * *

# Tested on: SK-MEL-28
# Test details: NCI tumour cell line growth inhibition, 48 h
Active and inactive are the calls of the source. No stated cut-off is given here; in the data, active = GI50 up to about 1.1 µM and inactive = higher.
GI50 values, listed per item

Below are worked cases with known answers.
[[record]]
compound = "CCOP12(OCC)NC(=O)OC1(C(F)(F)F)c1ccccc1O2 (centres undefined)"
subject_of_test = "SK-MEL-28"
result = "> 100 µM (inactive)"

[[record]]
compound = "COC(=O)C1C(=O)C=CN([C@H](C)c2ccccc2)[C@@H]1Cc1ccc(OC)c(OCc2ccccc2)c1I (some centres undefined)"
subject_of_test = "SK-MEL-28"
result = "40.6 µM (inactive)"

[[record]]
compound = "CCC1CC2CN3CCc4c([nH]c5c(-c6c(OC)ccc7c8c([nH]c67)[C@]6(C(=O)OC)CC7CC(CC)C6N(CC8)C7)c(O)ccc45)[C@](C(=O)OC)(C2)C13 (some centres undefined)"
subject_of_test = "SK-MEL-28"
result = "15.8 µM (inactive)"

[[record]]
compound = "CC(=O)OCC1OC(OCC2OC(N3C(=S)N[C@H]([C@@H](O)[C@H](O)[C@H](O)CO)[C@H]3O)C(OC(C)=O)C(OC(C)=O)C2OC(C)=O)C(OC(C)=O)C(OC(C)=O)C1OC(C)=O (some centres undefined)"
subject_of_test = "SK-MEL-28"
result = "> 100 µM (inactive)"

[[record]]
compound = "CN1CCN(Cn2nc(COc3ccc(Cl)cc3)n(/N=C/c3ccc(-c4ccc(Cl)cc4Cl)o3)c2=S)CC1"
subject_of_test = "SK-MEL-28"
result = "13.9 µM (inactive)"


Lookup: Retrieve GI50 measured for N=C(N)N/N=C(/c1ccccc1)c1ccc(O)cc1O and print it.
Found: 72.6 µM (inactive)
